assay-system: gastrin (CCK2) receptors (Rattus norvegicus, UniProt P30553)
Construct: The stomach was excised and flushed with ca. 1 ml of unbuffered physiological saline solution; from tissue; host or cells: isolated whole stomach of immature rats (33-50 g, ca. 21 days old)
assay-method-text: immature rat stomach assay for gastrin (CCK2) antagonist activity (pentagastrin-stimulated acid secretion)
setup-conditions: isolated immature rat stomach, antagonism of pentagastrin dose-response curves, 60 min incubation; tested as N-methyl D-glucamine salts; read-out: Rat stomach pKB (converted)
For each entry below, report its Kb value.
Express the reported value numerically, then name its unit.

What value of Kb on gastrin (CCK2) receptors (Rattus norvegicus, UniProt P30553) does O=C(O)c1cccc(NC(=O)c2nn(-c3cccc4ccccc34)nc2COC23CC4CC(CC(C4)C2)C3)c1 [Example 18] have?
1.51 µM

What value of Kb on gastrin (CCK2) receptors (Rattus norvegicus, UniProt P30553) does O=C(O)c1cccc(NC(=O)c2nn(C3CCCCC3)nc2COC23CC4CC(CC(C4)C2)C3)c1 [Example 2] have?
0.0479 µM

What value of Kb on gastrin (CCK2) receptors (Rattus norvegicus, UniProt P30553) does O=C(O)c1cccc(NC(=O)c2nn(-c3ccccc3)nc2COC23CC4CC(CC(C4)C2)C3)c1 [Example 20] have?
2.09 µM

What value of Kb on gastrin (CCK2) receptors (Rattus norvegicus, UniProt P30553) does CC(C)c1ccccc1-n1nc(COC23CC4CC(CC(C4)C2)C3)c(C(=O)Nc2cccc(C(=O)O)c2)n1 [Example 17] have?
0.263 µM

###

For each entry below, report its Kb value.
assay-system: gastrin (CCK2) receptors (Rattus norvegicus, UniProt P30553)
Construct: The stomach was excised and flushed with ca. 1 ml of unbuffered physiological saline solution; from tissue; host or cells: isolated whole stomach of immature rats (33-50 g, ca. 21 days old)
assay-method-text: immature rat stomach assay for gastrin (CCK2) antagonist activity (pentagastrin-stimulated acid secretion)
setup-conditions: isolated immature rat stomach, antagonism of pentagastrin dose-response curves, 60 min incubation; tested as N-methyl D-glucamine salts; read-out: Rat stomach pKB (converted)
Value expressed in µM; do not type the unit.

What Kb value was documented for this compound, O=C(O)c1cccc(NC(=O)c2nn(-c3cc(Cl)ccc3Cl)nc2COC23CC4CC(CC(C4)C2)C3)c1 ?
0.151

What Kb value was documented for this compound, CC(C)(C)n1nc(COC23CC4CC(CC(C4)C2)C3)c(C(=O)Nc2cccc(C(=O)O)c2)n1 ?
0.631

What Kb value was documented for this compound, Cc1cccc(-n2nc(COC34CC5CC(CC(C5)C3)C4)c(C(=O)Nc3cccc(C(=O)O)c3)n2)c1C ?
0.0741

What Kb value was documented for this compound, O=C(O)c1cccc(NC(=O)c2nn(C3CCCCCC3)nc2COC23CC4CC(CC(C4)C2)C3)c1 ?
0.0135

###

assay-system: gastrin (CCK2) receptors (Rattus norvegicus, UniProt P30553)
Construct: The stomach was excised and flushed with ca. 1 ml of unbuffered physiological saline solution; from tissue; host or cells: isolated whole stomach of immature rats (33-50 g, ca. 21 days old)
assay-method-text: immature rat stomach assay for gastrin (CCK2) antagonist activity (pentagastrin-stimulated acid secretion)
setup-conditions: isolated immature rat stomach, antagonism of pentagastrin dose-response curves, 60 min incubation; tested as N-methyl D-glucamine salts; read-out: Rat stomach pKB (converted)
For each entry below, report its Kb value.
Value expressed in nM; do not type the unit.

What Kb value was documented for this molecule, O=C(O)c1cccc(NC(=O)c2nn(-c3c(Cl)cccc3Cl)nc2COC2CCCCCC2)c1 ?
97.7

What Kb value was documented for this molecule, COc1ccccc1-n1nc(COC23CC4CC(CC(C4)C2)C3)c(C(=O)Nc2cccc(C(=O)O)c2)n1 ?
41.7

What Kb value was documented for this molecule, O=C(O)c1cccc(NC(=O)c2nn(-c3c(Cl)cccc3Cl)nc2COc2ccccc2)c1 ?
1230

What Kb value was documented for this molecule, O=C(O)c1cccc(NC(=O)c2nn(-c3c(Cl)cc(Cl)cc3Cl)nc2COC23CC4CC(CC(C4)C2)C3)c1 ?
191

What Kb value was documented for this molecule, CCc1ccccc1-n1nc(COC23CC4CC(CC(C4)C2)C3)c(C(=O)Nc2cccc(C(=O)O)c2)n1 ?
24

What Kb value was documented for this molecule, O=C(O)c1cccc(NC(=O)c2nnn(-c3ccccc3Br)c2COC23CC4CC(CC(C4)C2)C3)c1 ?
229

What Kb value was documented for this molecule, O=C(O)Cc1cccc(NC(=O)c2nn(-c3c(Cl)cccc3Cl)nc2COC23CC4CC(CC(C4)C2)C3)c1 ?
2820

###

assay-system: gastrin (CCK2) receptors (Rattus norvegicus, UniProt P30553)
Construct: The stomach was excised and flushed with ca. 1 ml of unbuffered physiological saline solution; from tissue; host or cells: isolated whole stomach of immature rats (33-50 g, ca. 21 days old)
Sequence (P30553 1-452): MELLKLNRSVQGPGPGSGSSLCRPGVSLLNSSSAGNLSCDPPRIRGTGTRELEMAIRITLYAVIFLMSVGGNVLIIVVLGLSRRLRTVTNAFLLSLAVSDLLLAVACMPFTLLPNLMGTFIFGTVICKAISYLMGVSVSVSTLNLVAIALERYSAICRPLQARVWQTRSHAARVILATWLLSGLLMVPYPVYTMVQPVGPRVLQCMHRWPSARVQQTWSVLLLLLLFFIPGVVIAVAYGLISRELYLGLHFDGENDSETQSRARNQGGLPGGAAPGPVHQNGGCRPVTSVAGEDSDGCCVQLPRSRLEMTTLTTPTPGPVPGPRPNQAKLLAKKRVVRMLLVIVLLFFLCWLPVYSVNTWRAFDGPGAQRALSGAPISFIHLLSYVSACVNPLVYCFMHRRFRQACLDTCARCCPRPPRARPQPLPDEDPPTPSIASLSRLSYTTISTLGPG
assay-method-text: immature rat stomach assay for gastrin (CCK2) antagonist activity (pentagastrin-stimulated acid secretion)
setup-conditions: isolated immature rat stomach, antagonism of pentagastrin dose-response curves, 60 min incubation; tested as N-methyl D-glucamine salts; read-out: Rat stomach pKB (converted)
Method: The compounds of the examples were tested for gastrin (CCK2) antagonist activity in an immature rat stomach assay. The procedure was as follows: […] After 120 min of stabilisation the drugs were added directly to the serosal solution in the organ bath and after a further 60 min cumulative pentagastrin dose-response curves were started. Changes in acid secretion were monitored and the curves analysed according to Black et al, Br. J. Pharmacol., 1985, 86, 581.
For each entry below, report its Kb value.
Value expressed in nM; do not type the unit.

What Kb value was documented for this compound, Cc1ccccc1-n1nc(COC23CC4CC(CC(C4)C2)C3)c(C(=O)Nc2cccc(C(=O)O)c2)n1 ?
43.7

What Kb value was documented for this compound, O=C(O)c1cccc(NC(=O)c2nn(-c3ccccc3C(F)(F)F)nc2COC23CC4CC(CC(C4)C2)C3)c1 ?
67.6

What Kb value was documented for this compound, O=C(O)c1cccc(NC(=O)c2nn(-c3ccccc3-c3ccccc3)nc2COC23CC4CC(CC(C4)C2)C3)c1 ?
240

What Kb value was documented for this compound, O=C(O)c1cccc(NC(=O)c2nn(-c3ccccc3[N+](=O)[O-])nc2COC23CC4CC(CC(C4)C2)C3)c1 ?
380

What Kb value was documented for this compound, O=C(O)c1cccc(NC(=O)c2nn(-c3ccccc3Cl)nc2COC23CC4CC(CC(C4)C2)C3)c1 ?
30.9
